# TESTED SYSTEM: UniProt:Q12809
# Sequence (Q12809 whole entry): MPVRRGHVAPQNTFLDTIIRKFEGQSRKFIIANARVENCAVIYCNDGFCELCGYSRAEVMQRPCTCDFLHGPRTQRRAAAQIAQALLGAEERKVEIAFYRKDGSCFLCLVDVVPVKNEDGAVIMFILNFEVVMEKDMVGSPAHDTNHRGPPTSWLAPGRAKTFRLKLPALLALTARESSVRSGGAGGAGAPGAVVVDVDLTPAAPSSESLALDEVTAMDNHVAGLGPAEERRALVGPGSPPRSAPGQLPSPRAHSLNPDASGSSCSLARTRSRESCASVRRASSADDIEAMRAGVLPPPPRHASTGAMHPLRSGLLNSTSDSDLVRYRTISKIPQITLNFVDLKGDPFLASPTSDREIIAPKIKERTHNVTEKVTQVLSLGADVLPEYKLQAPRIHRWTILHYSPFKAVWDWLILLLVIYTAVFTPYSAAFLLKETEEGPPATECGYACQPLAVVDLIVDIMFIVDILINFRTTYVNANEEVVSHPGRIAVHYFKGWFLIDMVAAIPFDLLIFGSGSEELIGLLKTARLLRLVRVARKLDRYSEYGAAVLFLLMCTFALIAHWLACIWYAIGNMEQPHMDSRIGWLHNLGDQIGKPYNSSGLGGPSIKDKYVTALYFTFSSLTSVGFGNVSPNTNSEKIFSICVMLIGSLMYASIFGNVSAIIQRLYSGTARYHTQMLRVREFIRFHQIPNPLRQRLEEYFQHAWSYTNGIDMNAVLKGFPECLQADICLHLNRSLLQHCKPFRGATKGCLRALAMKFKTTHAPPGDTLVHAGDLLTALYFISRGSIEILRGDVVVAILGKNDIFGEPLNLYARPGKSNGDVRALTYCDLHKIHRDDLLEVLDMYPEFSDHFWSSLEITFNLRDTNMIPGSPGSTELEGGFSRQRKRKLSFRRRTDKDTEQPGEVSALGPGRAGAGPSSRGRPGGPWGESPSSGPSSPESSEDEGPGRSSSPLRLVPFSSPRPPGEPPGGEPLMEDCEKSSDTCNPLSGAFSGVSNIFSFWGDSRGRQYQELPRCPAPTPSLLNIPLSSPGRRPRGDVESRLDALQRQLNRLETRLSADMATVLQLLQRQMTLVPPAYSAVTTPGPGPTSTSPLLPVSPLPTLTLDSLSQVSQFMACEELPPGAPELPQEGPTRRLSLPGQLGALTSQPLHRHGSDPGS
# EXPERIMENTAL DETAILS: Displacement of dofetilide from human ERG transfected in HEK293 cells by fluorescence polarization assay; also: test concentration or dose not given here
Consider the following compounds; for each one, report its inhibition (INH).
Give just the numeric value; % need not be written.

Task: Need inhibition (INH) of NC(=O)c1nn(-c2ccc(F)cc2)c2c1CCc1ccc(NC(=O)c3cc(N4CCN(Cc5cnn(CCCO)c5)CC4)ncc3Cl)cc1-2 , thanks.
Result: 49

Task: Moving on to CCOC(=O)Cn1cc(CN2CCN(c3cc(C(=O)Nc4ccc5c(c4)-c4c(c(C(N)=O)nn4-c4cccc(F)c4)CC5)c(Cl)cn3)CC2)cn1
Result: 78

Task: Try the compound COCCOC(=O)Cn1cc(CN2CCN(c3cc(C(=O)Nc4ccc5c(c4)-c4c(c(C(N)=O)nn4-c4ccc(F)cc4)CC5)c(Cl)cn3)CC2)cn1
Result: 66

Task: What would you report for N#CCCn1cc(CN2CCN(c3cc(C(=O)Nc4ccc5c(c4)-c4c(c(C(N)=O)nn4-c4ccc(F)cc4)CC5)c(Cl)cn3)CC2)cn1 ?
Result: 98

Task: Please answer likewise for Cn1cc(CN2CCN(c3cc(C(=O)Nc4ccc5c(c4)-c4c(c(C(N)=O)nn4-c4ccc(F)cc4)CC5)c(Cl)cn3)CC2)cn1
Result: 91

src = ChEMBL document CHEMBL1667819
